- SYSTEM TESTED: RBL-1 Cell 5-Lipoxygenase (Rattus norvegicus, UniProt P12527)
- Construct: the supernatant was saved as the source of enzymes; endogenous in cells; host or cells: RBL-1 (rat basophilic leukemia cells), 10,000×g supernatant of homogenate
- Sequence (P12527 whole entry): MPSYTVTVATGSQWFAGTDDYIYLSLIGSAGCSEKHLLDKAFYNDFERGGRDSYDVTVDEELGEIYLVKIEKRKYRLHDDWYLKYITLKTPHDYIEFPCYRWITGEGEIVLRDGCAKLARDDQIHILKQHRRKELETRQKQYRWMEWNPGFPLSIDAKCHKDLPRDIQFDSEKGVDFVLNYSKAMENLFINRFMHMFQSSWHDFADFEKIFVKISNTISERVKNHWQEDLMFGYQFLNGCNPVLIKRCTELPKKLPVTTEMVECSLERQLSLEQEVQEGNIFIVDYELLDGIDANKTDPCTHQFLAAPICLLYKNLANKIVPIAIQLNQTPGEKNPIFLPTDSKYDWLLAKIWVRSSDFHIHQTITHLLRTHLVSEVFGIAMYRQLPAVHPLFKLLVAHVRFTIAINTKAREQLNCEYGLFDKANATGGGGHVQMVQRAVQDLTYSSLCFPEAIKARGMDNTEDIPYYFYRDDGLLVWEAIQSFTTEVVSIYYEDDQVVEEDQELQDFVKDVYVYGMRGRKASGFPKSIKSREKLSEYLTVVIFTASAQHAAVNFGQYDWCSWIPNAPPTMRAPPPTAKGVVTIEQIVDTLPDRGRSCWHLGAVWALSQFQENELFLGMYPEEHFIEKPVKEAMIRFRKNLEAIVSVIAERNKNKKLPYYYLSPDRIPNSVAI
- PROCEDURE SUMMARY: Procedure II: 5-lipoxygenase inhibition in disrupted RBL-1 cells (supernatant as enzyme source)
- Format: biochemical
METRIC NAME: % INHIBITION 5-LO (Procedure II)
Field: value (include unit after the number)

% INHIBITION 5-LO (Procedure II) for RBL-1 Cell 5-Lipoxygenase (Rattus norvegicus, UniProt P12527) with input `COc1ccc(-n2nc(COC(=O)N(O)C(C)C)c(Br)c2-c2ccc(C)cc2)cc1` equals 81%

Observed % INHIBITION 5-LO (Procedure II), RBL-1 Cell 5-Lipoxygenase (Rattus norvegicus, UniProt P12527), `COc1ccc(-n2nc(CCCOC(=O)NO)cc2-c2ccc(Cl)cc2)cc1` : 83%

Record `COc1ccc(-n2nc(COC(=O)NO)cc2-c2ccc(C)cc2)cc1` / RBL-1 Cell 5-Lipoxygenase (Rattus norvegicus, UniProt P12527), % INHIBITION 5-LO (Procedure II) recorded as 33%

Entry `COc1ccc(-n2nc(COC(=O)N(C)O)c(Cl)c2-c2ccc(C)cc2)cc1` under RBL-1 Cell 5-Lipoxygenase (Rattus norvegicus, UniProt P12527) had % INHIBITION 5-LO (Procedure II) of 88%

Reported RBL-1 Cell 5-Lipoxygenase (Rattus norvegicus, UniProt P12527) % INHIBITION 5-LO (Procedure II) for item `COc1ccc(-n2nc(CCOC(=O)N(O)C(C)C)c(Cl)c2-c2ccc(C)cc2)cc1` was 74%

Form field, % INHIBITION 5-LO (Procedure II) with RBL-1 Cell 5-Lipoxygenase (Rattus norvegicus, UniProt P12527), item `COc1ccc(-n2nc(COC(=O)NO)cc2-c2ccc(Cl)cc2)cc1` : 20%

Note to self: % INHIBITION 5-LO (Procedure II) of `COc1ccc(-n2nc(COC(=O)N(O)C(C)C)cc2-c2ccc(Cl)cc2)cc1` with RBL-1 Cell 5-Lipoxygenase (Rattus norvegicus, UniProt P12527) was 88%

Short answer on RBL-1 Cell 5-Lipoxygenase (Rattus norvegicus, UniProt P12527) for `COc1ccc(-n2nc(COC(=O)N(O)C(C)C)c(Br)c2-c2ccc(Cl)cc2)cc1` , % INHIBITION 5-LO (Procedure II): 63%

Record `COc1ccc(-n2nc(COC(=O)N(C)O)cc2-c2ccc(C)cc2)cc1` ; system RBL-1 Cell 5-Lipoxygenase (Rattus norvegicus, UniProt P12527); % INHIBITION 5-LO (Procedure II) = 58%

Log: RBL-1 Cell 5-Lipoxygenase (Rattus norvegicus, UniProt P12527), compound `COc1ccc(-n2nc(CCOC(=O)NO)c(Br)c2-c2ccc(C)cc2)cc1` , % INHIBITION 5-LO (Procedure II) = 59%

###

Would you kindly list inhibition at 5 mg/kg for each of these compounds?
- Test system: 5-LO (LTB4) in dog whole blood
- PROCEDURE SUMMARY: Procedure IV: ex vivo eicosanoid synthesis in dog whole blood after oral dosing, 5-LO
- MEASUREMENT CONDITIONS: Canis lupus familiaris, 5 MPK, 2 hours, read-out: % INHIB/HOURS 5-LO (Proc. IV)
Return type: number; implicit unit %.

Sample COc1ccc(-n2nc(CCCOC(=O)N(C)O)c(Cl)c2-c2ccc(Cl)cc2)cc1 [3-D] ; inhibition at 5 mg/kg observed: 1

Measured inhibition at 5 mg/kg of COc1ccc(-n2nc(CCOC(=O)N(O)C(C)C)cc2-c2ccc(Cl)cc2)cc1 [2-B] : 0

The compound COc1ccc(-n2nc(CCCOC(=O)N(C)O)c(Br)c2-c2ccc(Cl)cc2)cc1 [3-F] showed inhibition at 5 mg/kg equal to 8

For record COc1ccc(-n2nc(COC(=O)NO)c(Cl)c2-c2ccc(C)cc2)cc1 [1-P] the listed inhibition at 5 mg/kg is 27

Short answer for COc1ccc(-n2nc(CCOC(=O)N(O)C(C)C)c(Cl)c2-c2ccc(Cl)cc2)cc1 [2-D] : inhibition at 5 mg/kg was 32
